Record form. Attribute: pIC50. Fill in for each entry.
target: UniProt:P30556
Sequence (P30556 whole entry): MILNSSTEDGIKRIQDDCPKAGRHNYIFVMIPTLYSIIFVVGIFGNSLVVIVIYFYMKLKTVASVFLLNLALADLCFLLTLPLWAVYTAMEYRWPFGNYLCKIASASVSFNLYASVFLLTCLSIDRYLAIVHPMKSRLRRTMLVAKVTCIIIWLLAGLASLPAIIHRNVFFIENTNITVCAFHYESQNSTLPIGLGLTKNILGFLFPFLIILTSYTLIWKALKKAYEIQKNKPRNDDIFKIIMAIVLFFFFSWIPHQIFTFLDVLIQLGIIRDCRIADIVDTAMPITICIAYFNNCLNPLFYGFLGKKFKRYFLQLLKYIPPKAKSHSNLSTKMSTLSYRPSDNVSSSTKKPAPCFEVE
pIC50: −log10 of the molar value.

Illustrative cases are given below, each with its answer.
>>> resultvalue("O=C(O)[C@@H]1[C@H]2CC[C@@H](CN1C(=O)C(c1ccccc1)c1ccccc1)N2C(=O)C(c1ccccc1)c1ccccc1")
"< 5.00"
>>> resultvalue("O=C(O)[C@@H]1[C@H]2CC[C@@H](CN1C(=O)N(c1ccccc1)c1ccccc1)N2C(=O)OCc1ccccc1")
"< 5.00"

In the following, a different compound is considered.
response.value for CN(Cc1ccccn1)C(=O)N1[C@H]2CC[C@@H]1[C@@H](C(=O)O)N(C(=O)C(c1ccccc1)c1ccccc1)C2 (field: pIC50) = < 5.00
